- Test system: Puccinia Recondita
- ASSAY: Preventive fungicidal activity (5 days) against Puccinia Recondita on wheat
- Format: in vivo
- CONDITION_PARAMETERS: 250 ppm; wheat; non-treated parts (NT)
- Text: Determination of the preventive fungicidal activity (5 days) against Puccinia Recondita on wheat. […] The fungicidal activity is expressed as a percentage of the reduction, with respect to non-treated seedlings (comparison), in the area of the leaf affected by the disease (100=full effectiveness; 0=zero effectiveness).
READOUT_TYPE: Activity P5 NT (reduction of leaf area affected, parts developed during the test) (%)

>>> print(df.to_string())
                                   compound  test_value
0  CCN(C)C=Nc1cc(Br)c(SCc2cccc(C(F)(F)F)c2)nc1C          85
1         CCN(C)C=Nc1cc(C)c(SCC2CCCCC2)nc1C          70
2            CCCCCCSc1nc(C)c(N=CN(C)CC)cc1C          65
3     CCN(C)C=Nc1cc(C)c(SCc2c(F)cccc2F)nc1C          97
4  CCN(C)C=Nc1cc(Br)c(OCCC(C)C)nc1C [CR1, reference compound]          50
5  CCN(C)C=Nc1cc(C)c(SCc2cccc(C(F)(F)F)c2)nc1C          98
6           CCN(C)C=Nc1cc(C)c(SCCC(C)C)nc1C          95
7          CCN(C)C=Nc1cc(Br)c(SCCC(C)C)nc1C          65

// data source = patent US20210100246A1
